Data credit: ChEMBL document CHEMBL1132487

System: T-24
assay: Inhibition of human T24 cell proliferation
Format: functional, cell-based
Simple rule here: IC50 less than 70 µM is met, otherwise not met.

>>> df
                                   compound  class_name
0   CCCCCCCCCCCC(=O)[C@H]1O[C@H]1C(=O)N(C)C         met
1         CCCCCCCCCC(=O)[C@H]1O[C@H]1C(N)=O         met
2  CCCCCCCCCCCCCC1OC(=O)[C@@H]2O[C@H]12 (stereo partly specified)     not met
3  CCCCCCCCCCCCCCCCCC(O)[C@H]1O[C@H]1C(N)=O (stereo partly specified)     not met
4   CCCCCCCCCCCCCCCC(=O)[C@H]1O[C@H]1C(N)=O         met

Regarding `C/C=C/C/C=C/CCC(=O)[C@H]1O[C@H]1C(N)=O` , kindly confirm whether its IC50 is beneath 70 µM.
met

Regarding `NC(=O)[C@H]1O[C@H]1C(=O)c1ccccc1` , kindly confirm whether its IC50 is beneath 70 µM.
met

Regarding `CCCCCCCCC(=O)[C@H]1O[C@H]1C(=O)N(C)C` , kindly confirm whether its IC50 is beneath 70 µM.
not met

Regarding CCCCCCCCCCCCCC(O)[C@H]1O[C@H]1C(N)=O (stereo partly specified) , kindly confirm whether its IC50 is beneath 70 µM.
not met

Regarding `CCCCCCCCC(=O)[C@H]1O[C@H]1C(N)=O` , kindly confirm whether its IC50 is beneath 70 µM.
met

====

List of log10 of IC50 values.
Test system: T-24
assay: Inhibition of human T24 cell proliferation
Type: functional, cell-based
Short version: log10 scale, IC50, µM.

# count of solved cases: 3
>>> print(df.to_string())
                                   compound  number
0  CCCCCCCCCCCCCCCC(O)[C@H]1O[C@H]1C(=O)N(C)C (some centres not stated)    1.79
1  CCCCCCCCCCCCCCCCCC(O)[C@H]1O[C@H]1C(=O)N(C)C (some centres not stated)    1.72
2     CCCCCCCCCC(=O)[C@H]1O[C@H]1C(=O)N(C)C    1.89

Then this compound:
Provide one value: measured log10 of IC50 of `CCCCCCCCCCCCCC(=O)[C@H]1O[C@H]1C(N)=O`
1.11

====

List of inhibition values.
tested target: Fatty acid synthase (Homo sapiens)
assay: Inhibition of fatty acid synthase at a concentration of 150 (uM)
The answer is to be given in %; state only the numeric part.

                                   molecule  number
0  CCCCCCCCCCCCCC(O)[C@H]1O[C@H]1C(=O)N(C)C (stereo not given in full)       5

Provide one value: measured inhibition of `NC(=O)[C@H]1O[C@H]1C(=O)c1ccccc1`
85

Provide one value: measured inhibition of CCCCCCCCCCCCCCCCCC1OC(=O)[C@@H]2O[C@H]12 (stereo not given in full)
5

Provide one value: measured inhibition of `CCCCCCCCCCCCCCCCCC(=O)[C@H]1O[C@H]1C(N)=O`
0

Provide one value: measured inhibition of `CCCCCCCCCCCCCCCCCC(=O)[C@H]1O[C@H]1C(=O)N(C)C`
0

====

tested target: UniProt P49327
assay: Inhibition of fatty acid synthase at a concentration of 150 (uM)
So basically: inhibition at 6% or higher? That is condition met. Lower than 6%? That is condition not met.

Examples with answers:
>>> df
                                   molecule         class_name
0  CCCCCCCCCCCCCCCC(O)[C@H]1O[C@H]1C(=O)N(C)C (some centres not stated)  condition not met
1  CCCCCCCCCC(O)[C@H]1O[C@H]1C(N)=O (some centres not stated)  condition not met
2     CCCCCCCCCC(=O)[C@H]1O[C@H]1C(=O)N(C)C  condition not met
3      CN(C)C(=O)[C@H]1O[C@H]1C(=O)c1ccccc1  condition not met
4  C/C=C/C/C=C/CCC(=O)[C@H]1O[C@H]1C(N)=O [CERULENIN]      condition met

Does the molecule CCCCCCCCCC(O)[C@H]1O[C@H]1C(=O)N(C)C (some centres not stated) have recorded inhibition that is 6% or more?
condition not met

Does the molecule CCCCCCCCCCCCCC1OC(=O)[C@@H]2O[C@H]12 (some centres not stated) have recorded inhibition that is 6% or more?
condition not met

Does the molecule `CCCCCCCCCC(=O)[C@H]1O[C@H]1C(N)=O` have recorded inhibition that is 6% or more?
condition met

Does the molecule `CCCCCCCCCCCC(=O)[C@H]1O[C@H]1C(=O)N(C)C` have recorded inhibition that is 6% or more?
condition not met

Does the molecule CCCCCCCCC(O)[C@H]1O[C@H]1C(N)=O (some centres not stated) have recorded inhibition that is 6% or more?
condition not met

Does the molecule CCCCCCCCCCCC(O)[C@H]1O[C@H]1C(=O)N(C)C (some centres not stated) have recorded inhibition that is 6% or more?
condition met

====

tested target: Fatty acid synthase (Homo sapiens) (UniProt P49327)
Sequence (P49327 whole entry, looked up): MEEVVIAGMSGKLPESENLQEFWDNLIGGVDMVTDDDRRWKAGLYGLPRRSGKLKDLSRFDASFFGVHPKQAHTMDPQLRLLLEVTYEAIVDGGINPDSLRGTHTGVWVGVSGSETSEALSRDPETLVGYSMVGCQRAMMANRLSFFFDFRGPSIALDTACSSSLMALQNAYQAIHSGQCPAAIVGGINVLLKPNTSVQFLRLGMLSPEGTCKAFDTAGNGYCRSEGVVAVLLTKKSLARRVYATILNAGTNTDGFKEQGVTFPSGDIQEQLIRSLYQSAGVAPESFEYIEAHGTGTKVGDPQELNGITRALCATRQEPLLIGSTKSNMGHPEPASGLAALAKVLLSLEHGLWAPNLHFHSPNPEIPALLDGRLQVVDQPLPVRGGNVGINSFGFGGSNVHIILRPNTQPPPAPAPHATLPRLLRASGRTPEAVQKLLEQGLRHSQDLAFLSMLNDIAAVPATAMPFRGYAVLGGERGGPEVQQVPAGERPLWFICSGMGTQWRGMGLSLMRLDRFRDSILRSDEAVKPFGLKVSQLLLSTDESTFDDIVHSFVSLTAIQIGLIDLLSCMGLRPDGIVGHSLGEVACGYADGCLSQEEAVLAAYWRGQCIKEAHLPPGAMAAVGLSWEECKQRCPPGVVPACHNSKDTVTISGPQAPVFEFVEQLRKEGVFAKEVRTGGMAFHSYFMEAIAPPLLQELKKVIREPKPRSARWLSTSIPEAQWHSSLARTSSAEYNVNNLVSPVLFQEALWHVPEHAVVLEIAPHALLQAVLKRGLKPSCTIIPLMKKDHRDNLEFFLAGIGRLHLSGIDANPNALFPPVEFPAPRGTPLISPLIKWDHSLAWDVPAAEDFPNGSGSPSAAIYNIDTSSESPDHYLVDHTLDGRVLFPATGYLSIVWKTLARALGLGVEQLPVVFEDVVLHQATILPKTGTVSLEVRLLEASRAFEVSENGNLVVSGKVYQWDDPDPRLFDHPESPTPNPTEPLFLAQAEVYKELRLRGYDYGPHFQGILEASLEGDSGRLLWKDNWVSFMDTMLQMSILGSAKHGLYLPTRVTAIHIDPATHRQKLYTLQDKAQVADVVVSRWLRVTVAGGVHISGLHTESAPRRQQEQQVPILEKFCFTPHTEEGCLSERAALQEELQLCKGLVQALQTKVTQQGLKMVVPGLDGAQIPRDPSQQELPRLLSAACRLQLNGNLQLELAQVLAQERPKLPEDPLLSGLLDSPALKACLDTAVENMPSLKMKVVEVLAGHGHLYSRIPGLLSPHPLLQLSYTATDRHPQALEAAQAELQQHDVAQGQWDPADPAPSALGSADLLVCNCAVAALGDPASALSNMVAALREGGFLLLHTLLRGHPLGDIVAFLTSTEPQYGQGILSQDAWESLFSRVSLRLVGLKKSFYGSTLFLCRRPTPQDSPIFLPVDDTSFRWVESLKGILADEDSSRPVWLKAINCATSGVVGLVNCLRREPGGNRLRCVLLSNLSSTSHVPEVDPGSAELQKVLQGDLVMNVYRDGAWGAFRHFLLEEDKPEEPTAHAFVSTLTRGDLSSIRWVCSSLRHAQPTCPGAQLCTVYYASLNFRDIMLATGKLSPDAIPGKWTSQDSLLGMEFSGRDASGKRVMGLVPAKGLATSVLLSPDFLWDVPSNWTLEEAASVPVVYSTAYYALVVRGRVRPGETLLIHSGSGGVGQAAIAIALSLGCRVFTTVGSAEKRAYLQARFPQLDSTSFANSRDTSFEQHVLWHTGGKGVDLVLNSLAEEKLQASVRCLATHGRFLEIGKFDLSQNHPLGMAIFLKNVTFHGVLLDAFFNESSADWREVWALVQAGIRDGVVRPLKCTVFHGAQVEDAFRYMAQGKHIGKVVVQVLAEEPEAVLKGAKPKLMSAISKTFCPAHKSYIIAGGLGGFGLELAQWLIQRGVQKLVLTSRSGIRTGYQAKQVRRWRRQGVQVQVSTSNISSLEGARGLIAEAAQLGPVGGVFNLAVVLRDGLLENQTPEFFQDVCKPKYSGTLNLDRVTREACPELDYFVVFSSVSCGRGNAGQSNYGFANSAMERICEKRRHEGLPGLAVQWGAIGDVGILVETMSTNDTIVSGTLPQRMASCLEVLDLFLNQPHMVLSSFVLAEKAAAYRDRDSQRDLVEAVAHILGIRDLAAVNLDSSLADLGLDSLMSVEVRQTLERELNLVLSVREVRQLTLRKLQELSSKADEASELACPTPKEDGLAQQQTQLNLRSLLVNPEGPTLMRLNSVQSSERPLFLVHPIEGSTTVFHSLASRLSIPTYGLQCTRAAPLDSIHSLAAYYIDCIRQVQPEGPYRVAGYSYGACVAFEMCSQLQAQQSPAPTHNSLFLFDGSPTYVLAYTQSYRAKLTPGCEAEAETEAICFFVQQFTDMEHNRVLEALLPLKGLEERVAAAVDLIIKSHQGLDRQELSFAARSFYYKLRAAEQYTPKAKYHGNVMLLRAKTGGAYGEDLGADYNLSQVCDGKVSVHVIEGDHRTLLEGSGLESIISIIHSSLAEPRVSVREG
assay: Inhibition of fatty acid synthase at a concentration of 150 (uM)
List of inhibition values.
The answer is to be given in %; state only the numeric part.

In [3]: df
Out[3]:
                                   molecule  outcome_measure  number
0  CCCCCCCCCCCCCCCCCC(O)[C@H]1O[C@H]1C(N)=O (stereo partly specified)       inhibition       0

Provide one value: measured inhibition of CCCCCCCCCCCCCCCC(O)[C@H]1O[C@H]1C(N)=O (stereo partly specified)
10

====

List of IC50 values.
Test system: T-24
assay: Inhibition of human T24 cell proliferation
Format: functional, cell-based
The answer is to be given in µM; state only the numeric part.

Provide one value: measured IC50 of `CCCCCCCCCCCCCCCCCC(=O)[C@H]1O[C@H]1C(N)=O`
17

Provide one value: measured IC50 of CCCCCCCCCCCCCCCC(O)[C@H]1O[C@H]1C(N)=O (stereo partly drawn)
190

Provide one value: measured IC50 of `CCCCCCCCCCCCCC(=O)[C@H]1O[C@H]1C(=O)N(C)C`
40

Provide one value: measured IC50 of `CN(C)C(=O)[C@H]1O[C@H]1C(=O)c1ccccc1`
29

Provide one value: measured IC50 of CCCCCCCCCCCC(O)[C@H]1O[C@H]1C(N)=O (stereo partly drawn)
130

Provide one value: measured IC50 of `CCCCCCCCCCCCCCCCCC(=O)[C@H]1O[C@H]1C(=O)N(C)C`
34

Provide one value: measured IC50 of CCCCCCCCCCCCCCCC1OC(=O)[C@@H]2O[C@H]12 (stereo partly drawn)
140

Provide one value: measured IC50 of `CCCCCCCCCCCC(=O)[C@H]1O[C@H]1C(N)=O`
20

====

tested target: Fatty acid synthase (Homo sapiens) (UniProt P49327)
assay: Inhibition of fatty acid synthase at a concentration of 150 (uM)
outcome measure: inhibition (%)
The answer is to be given in %; state only the numeric part.

Provide one value: measured inhibition of `CCCCCCCCCCCCCC(=O)[C@H]1O[C@H]1C(=O)N(C)C`
2

Provide one value: measured inhibition of `CCCCCCCCCCCCCC(=O)[C@H]1O[C@H]1C(N)=O`
0

Provide one value: measured inhibition of CCCCCCCCCCCC1OC(=O)[C@@H]2O[C@H]12 (some centres undefined)
4

Provide one value: measured inhibition of `CCCCCCCCC(=O)[C@H]1O[C@H]1C(=O)N(C)C`
1

Provide one value: measured inhibition of `CCCCCCCCC(=O)[C@H]1O[C@H]1C(N)=O`
74

Provide one value: measured inhibition of CCCCCCCCCCCCCC(O)[C@H]1O[C@H]1C(N)=O (some centres undefined)
3

Provide one value: measured inhibition of `CCCCCCCCCCCCCCCC(=O)[C@H]1O[C@H]1C(N)=O`
2

Provide one value: measured inhibition of CCCCCCCCC1OC(=O)[C@@H]2O[C@H]12 (some centres undefined)
75

Provide one value: measured inhibition of `CCCCCCCCCCCC(=O)[C@H]1O[C@H]1C(N)=O`
44

====

System: T-24
assay: Inhibition of human T24 cell proliferation
Assay type: functional, cell-based
List of IC50 values.

# count of solved cases: 3
In [3]: df
Out[3]:
                                   compound  outcome_measure    result
0  CCCCCCCCCCCCCCCCCC1OC(=O)[C@@H]2O[C@H]12 (stereo not given in full)             IC50  > 150 µM
1  CCCCCCCCC(O)[C@H]1O[C@H]1C(=O)N(C)C (stereo not given in full)             IC50  > 190 µM
2  CCCCCCCCCC(O)[C@H]1O[C@H]1C(N)=O (stereo not given in full)             IC50  > 200 µM

Provide one value: measured IC50 of CCCCCCCCCC1OC(=O)[C@@H]2O[C@H]12 (stereo not given in full)
> 220 µM

Provide one value: measured IC50 of CCCCCCCCC1OC(=O)[C@@H]2O[C@H]12 (stereo not given in full)
> 240 µM

Provide one value: measured IC50 of CCCCCCCCCC(O)[C@H]1O[C@H]1C(=O)N(C)C (stereo not given in full)
220 µM

Provide one value: measured IC50 of `CCCCCCCCCCCCCCCC(=O)[C@H]1O[C@H]1C(=O)N(C)C`
40 µM
